Can you tell me Drug uptake for the items I'm about to list?
System: Stomach
Experiment: Biodistribution in ddY mouse stomach at 1 uCi/100 uL, iv after 15 mins by gamma counting
Assay type: ADME, organism-based
Details: in vivo, 0.25 h
Give the figure together with its unit, number first.

// for each molecule below, give its Drug uptake
1. Nc1ccc(/C=C/C(=O)/C=C/c2ccc([125I])cc2)cc1
2. CN(C)c1ccc(/C=C/C(=O)/C=C/c2ccc([125I])cc2)cc1
3. CNc1ccc(/C=C/C(=O)/C=C/c2ccc([125I])cc2)cc1

## Output
3.1 % ID/organ
1.75 % ID/organ
3.82 % ID/organ

---

Can you tell me Ki for the items I'm about to list?
Assay: Displacement of [125I]IMPY from amyloid beta (1 to 42) aggregate after 2 hrs by gamma counting
Numbers only, in nM.

Structure smiles | Ki (nM)
O=C1/C(=C/c2ccc(Cl)cc2)CCC/C1=C\c1ccc(Cl)cc1 | 11.4
CN(C)c1ccc(/C=C/C(=O)/C=C/c2cccs2)cc1 | 5.3
CN(C)c1ccc(/C=C/C(=O)/C=C/c2cccc(Oc3ccccc3)c2)cc1 | 3.8

// for each compound below, give its Ki
1. COc1ccc2cc(/C=C/C(=O)/C=C/c3ccc(N(C)C)cc3)ccc2c1
2. CN(C)c1ccc(/C=C/C(=O)/C=C/c2ccc3c(c2)OCO3)cc1
3. CN(C)c1ccc(/C=C/C(=O)/C=C/c2ccc(OCCF)cc2)cc1

## Output
1. 2.5
2. 1.8
3. 5.6

---

Assay: Displacement of [125I]IMPY from amyloid beta (1 to 42) aggregate after 2 hrs by gamma counting
pKi: −log10 of the molar value.
Outcome label depends on pKi relative to 8: at/above gives 1, below gives -1.

Structure smiles | Class name
CNc1ccccc1/C=C/C(=O)/C=C/c1ccc(N(C)C)cc1 | -1

## Input Textbook exercise: given the entry CN(C)c1ccc(/C=C/C(=O)/C=C/c2ccccc2OCc2ccccc2)cc1 , state whether its pKi is greater than or equal to 8.
## Output -1

## Input Textbook exercise: given the entry CN(C)c1ccc(/C=C/C(=O)/C=C/c2ccc(OC(c3ccccc3)(c3ccccc3)c3ccccc3)cc2)cc1 , state whether its pKi is greater than or equal to 8.
## Output 1

## Input Textbook exercise: given the entry CN(C)c1ccc(/C=C/C(=O)/C=C/c2cccc(I)c2)cc1 , state whether its pKi is greater than or equal to 8.
## Output 1

---

Can you tell me Drug uptake for the items I'm about to list?
Test system: Stomach
Assay: Biodistribution in ddY mouse stomach at 1 uCi/100 uL, iv after 30 mins by gamma counting
Format: ADME, organism-based
Settings: in vivo, 0.5 h
Give bare numbers, in % ID/organ.

Before answering, review these 2 worked examples.
Structure smiles | U | Drug uptake
CNc1ccc(/C=C/C(=O)/C=C/c2ccc([125I])cc2)cc1 | % ID/organ | 3.17
CN(C)c1ccc(/C=C/C(=O)/C=C/c2ccc([125I])cc2)cc1 | % ID/organ | 1.85

Shifting focus to the compound that follows.
## Input // returns reported Drug uptake for input Nc1ccc(/C=C/C(=O)/C=C/c2ccc([125I])cc2)cc1
## Output 3.12

---

Can you tell me Ki for the items I'm about to list?
Test: Displacement of [125I]IMPY from amyloid beta (1 to 42) aggregate after 2 hrs by gamma counting
Numbers only, in nM.

Compound | Result number
CN(C)c1ccc(/C=C/C(=O)/C=C/c2ccc(C(F)(F)F)cc2)cc1 | 0.8

// for each compound below, give its Ki
1. COc1cc(/C=C/C(=O)CC(=O)/C=C/c2ccc(O)c(OC)c2)ccc1O [CURCUMIN]
2. CN(C)c1ccc(/C=C/C(=O)/C=C/c2cc([N+](=O)[O-])ccc2OCc2ccccc2)cc1
3. CN(C)c1ccc(/C=C/C(=O)/C=C/c2ccc(-c3ccc(Br)s3)s2)cc1
4. CN(C)c1ccc(/C=C/C(=O)/C=C/c2ccc(F)cc2)cc1
5. CCN(CC)c1ccc(/C=C/C(=O)/C=C/c2ccc(N(C)C)cc2)cc1

## Output
49.8
33.3
11.7
3.7
15.7

// for each compound below, give its Ki
1. CN(C)c1ccc(/C=C/C(=O)/C=C/c2cccc(N)c2)cc1
2. CN(C)c1ccc(/C=C/C(=O)/C=C/c2ccc[nH]2)cc1

## Output
1: 13.7; 2: 5.8

// for each compound below, give its Ki
1. CN(C)c1ccc(/C=C/C(=O)/C=C/c2cccc(Br)c2)cc1
2. COc1ccc(/C=C/C(=O)/C=C/c2ccc(N(C)C)cc2)cc1
3. CN(C)c1ccc(/C=C/C(=O)/C=C/c2ccccc2Cl)cc1

## Output
1. 1.9
2. 0.7
3. 0.9

// for each compound below, give its Ki
1. CN(C)c1ccc(/C=C/C(=O)/C=C/c2ccccc2[N+](=O)[O-])cc1
2. CN(C)c1ccc(/C=C/C(=O)/C=C/c2cc(C(F)(F)F)cc(C(F)(F)F)c2)cc1
3. COc1ccc(/C=C2\CCC/C(=C\c3ccc(OC)cc3)C2=O)cc1
4. CN(C)c1ccc(/C=C/C(=O)/C=C/c2ccc(Br)cc2)cc1
5. CNc1ccc(/C=C/C(=O)/C=C/c2ccc(N(C)C)cc2)cc1

## Output
[18.8, 4, 24.8, 2.8, 2.9]
